Ratio listing for selected compounds.
biological target: UniProtKB P08183; test: Inhibition of MDR1-mediated rhodamine 123 uptake expressed in mouse L5178Y cells assessed as fluorescence activity ratio at 20 ug/mL after 10 mins by flow cytometry relative to parent cells; assay type: cell-based; conditions: in the assay text read “20 uM” for “20 ug/mL”
Sequence (P08183 whole entry): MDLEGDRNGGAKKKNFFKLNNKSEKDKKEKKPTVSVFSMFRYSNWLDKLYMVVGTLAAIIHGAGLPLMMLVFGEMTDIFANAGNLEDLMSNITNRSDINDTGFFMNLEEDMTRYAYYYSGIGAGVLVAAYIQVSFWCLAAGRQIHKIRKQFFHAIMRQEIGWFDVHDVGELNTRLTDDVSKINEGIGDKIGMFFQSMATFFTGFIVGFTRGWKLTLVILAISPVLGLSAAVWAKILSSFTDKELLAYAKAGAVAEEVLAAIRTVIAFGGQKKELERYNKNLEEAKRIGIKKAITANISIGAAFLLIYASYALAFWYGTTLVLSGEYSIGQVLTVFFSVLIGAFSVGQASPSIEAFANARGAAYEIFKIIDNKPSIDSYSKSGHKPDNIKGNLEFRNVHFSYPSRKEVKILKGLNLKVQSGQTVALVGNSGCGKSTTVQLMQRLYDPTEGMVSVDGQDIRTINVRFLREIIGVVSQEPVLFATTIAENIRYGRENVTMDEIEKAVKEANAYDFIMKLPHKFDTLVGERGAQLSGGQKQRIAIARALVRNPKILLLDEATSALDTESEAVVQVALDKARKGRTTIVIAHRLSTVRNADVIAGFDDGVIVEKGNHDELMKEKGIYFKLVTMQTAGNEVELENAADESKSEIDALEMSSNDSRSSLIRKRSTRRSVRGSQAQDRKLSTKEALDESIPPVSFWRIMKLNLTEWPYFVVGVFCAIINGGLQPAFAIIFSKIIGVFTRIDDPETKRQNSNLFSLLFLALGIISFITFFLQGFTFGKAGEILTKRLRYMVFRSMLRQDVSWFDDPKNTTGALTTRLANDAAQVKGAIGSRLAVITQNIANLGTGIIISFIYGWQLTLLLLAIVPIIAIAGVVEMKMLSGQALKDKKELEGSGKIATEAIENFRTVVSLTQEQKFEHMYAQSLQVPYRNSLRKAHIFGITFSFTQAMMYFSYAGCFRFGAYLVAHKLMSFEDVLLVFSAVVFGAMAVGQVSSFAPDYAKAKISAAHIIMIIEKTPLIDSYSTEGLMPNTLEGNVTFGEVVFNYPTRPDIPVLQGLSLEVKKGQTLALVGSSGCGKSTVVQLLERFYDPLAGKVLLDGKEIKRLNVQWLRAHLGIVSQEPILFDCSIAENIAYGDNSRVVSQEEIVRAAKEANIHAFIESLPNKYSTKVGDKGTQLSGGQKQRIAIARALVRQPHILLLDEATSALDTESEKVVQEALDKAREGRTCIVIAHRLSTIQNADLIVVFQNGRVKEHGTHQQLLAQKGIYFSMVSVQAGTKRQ

Here's what some known entries look like.
CC(=O)O[C@H]1[C@H](OC(C)=O)/C(C)=C\[C@H]2[C@@H](OC(=O)c3ccccc3)[C@@H](C)C[C@]2(O)[C@@H](OC(C)=O)[C@@H](C)/C=C/C(C)(C)[C@@H]1OC(C)=O (relative stereo) [EUPHOMELLIFERENE B]    1.6
CC(=O)O[C@H]1[C@H](OC(C)=O)/C(C)=C\[C@H]2[C@@H](OC(=O)c3ccccc3)[C@@H](C)C[C@]2(OC(C)=O)[C@@H](OC(C)=O)[C@@H](C)/C=C/C(C)(C)[C@@H]1OC(C)=O (relative stereo) [EUPHOMELLIFERENE A]    23.1
CC(=O)O[C@H]1[C@H](OC(C)=O)/C(C)=C\[C@H]2[C@@H](OC(=O)c3ccccc3)[C@H](C)C[C@]2(O)C(=O)[C@@H](C)/C=C/C(C)(C)[C@@H]1OC(C)=O (relative stereo) [EUPHOMELLIFERINE]    12.1

Moving on to another compound below.
Note to self: Ratio recorded for `CC(=O)O[C@@H]1[C@@H](OC(C)=O)C(C)(C)/C=C/[C@H](C)C(=O)[C@@]2(OC(C)=O)C[C@@H](C)[C@H](OC(=O)c3ccccc3)/C2=C/[C@](C)(O)[C@H]1OC(C)=O` was 10.1
